B1: CHCHD3 (parent)
chain: YSGAYGASVSDEELKRRVAEELAL

- Variants of: B1
- experiment-summary: protein stability index of a GFP-peptide fusion (GPS, HEK-293T) (PSI 1-6); higher = more stable;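 note: lentivirally expressed fusions sorted by FACS into six bins by GFP to DsRed ratio, PSI derived from sequencing read proportions per bin multiplied by bin number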
- test-context: c terminus: a fixed tail appended
Rule: protein stability index of 3 or more gives 1 (yes); anything lower gives 0 (no).

Input: Threshold query (protein stability index >= 3) on YSGAYGFSVSDEELKRRVAEELAL
Output: 0 (no)

Input: Threshold query (protein stability index >= 3) on YSGAYGALVSDEELKRRVAEELAL
Output: 0 (no)

Data provenance is the supplement of paper PMC10567573.
